Values were extracted from patent US20240368209A1.

experiment: Metabolic stability in dog liver microsomes; type: in vitro ADME; details: read-out: Scale-up CLint
assay-readout: CLint scaled at 1 μM (mL/min/kg)
Only the number, expressed in mL/min/kg, is required.

Sample CC(C)NP(=O)(OCc1ccc([N+](=O)[O-])c(Oc2ccc(-c3ccc(F)cc3)c(F)c2)c1)OCC1OC(C2N=CC(N)=NC2=O)C(F)(F)C1O (stereo not shown) ; CLint scaled at 1 μM observed: 67.2

====

test: Metabolic stability in human liver microsomes; assay type: in vitro ADME; details: read-out: Scale-up CLint
assay-readout: CLint scaled at 1 μM (mL/min/kg)
Only the number, expressed in mL/min/kg, is required.

Sample CC(C)NP(=O)(OCc1ccc([N+](=O)[O-])c(Oc2ccc(-c3ccc(F)cc3)c(F)c2)c1)OCC1OC(C2N=CC(N)=NC2=O)C(F)(F)C1O (stereo not shown) [Compound H11] ; CLint scaled at 1 μM observed: 46

====

System: H460 cancer cells
Experiment: Inhibition of H460 cancer cells in the presence or absence of AKR1C3 inhibitor AST-3021 (section 2.1)
Type: cell-based, human
Conditions: Homo sapiens, NCI-H460, H460; AST-3021 3 μM; read-out: IC50 (nmol/L) AST-3021 added
Method: The experimental scheme was as follows: • 1) H460 cell suspension was added to a 96-well plate with 100 μL per well at a cell density of 2000/well. • 2) Cells were incubated in an incubator of 37° C., 5% CO2 overnight. • 3) Compound treatment Combined administration: 24 hours after cell plating, 98 μL of growth medium per well was added. […]
assay-readout: pIC50
Scale note: pIC50 = -log10(concentration in M).

Sample CC(C)NP(=O)(OCc1ccc([N+](=O)[O-])c(Oc2ccc(-c3ccc(F)cc3)c(F)c2)c1)OCC1OC(C2N=CC(N)=NC2=O)C(F)(F)C1O (centres unmarked) ; pIC50 observed: 5.53

Sample Nc1ccn([C@@H]2O[C@H](CO)[C@@H](O)C2(F)F)c(=O)n1 ; pIC50 observed: 7.85

====

experiment: Metabolic stability in rat liver microsomes; assay type: in vitro ADME; details: read-out: In vitro intrinsic clearance CLint
assay-readout: microsomal CLint at 1 μM (µL/min/mg)
Only the number, expressed in µL/min/mg, is required.

Sample CC(C)NP(=O)(OCc1ccc([N+](=O)[O-])c(Oc2ccc(-c3ccc(F)cc3)c(F)c2)c1)OCC1OC(C2N=CC(N)=NC2=O)C(F)(F)C1O (stereo not shown) ; microsomal CLint at 1 μM observed: 69

====

experiment: Plasma stability in human plasma; format: in vitro ADME; details: human
assay-readout: half-life at 5 µM (min)
Only the number, expressed in min, is required.

Sample CC(C)[N+](C)(CCOC(=O)C1c2ccccc2Oc2ccccc21)C(C)C [propantheline, reference compound] ; half-life at 5 µM observed: 36.6

====

test: Metabolic stability in mouse liver microsomes; type: in vitro ADME; conditions: read-out: In vitro intrinsic clearance CLint
assay-readout: microsomal CLint at 1 μM (µL/min/mg)
Only the number, expressed in µL/min/mg, is required.

Sample CC(C)NP(=O)(OCc1ccc([N+](=O)[O-])c(Oc2ccc(-c3ccc(F)cc3)c(F)c2)c1)OCC1OC(C2N=CC(N)=NC2=O)C(F)(F)C1O (stereo not shown) [Compound H11] ; microsomal CLint at 1 μM observed: 59.5

====

test: Plasma stability in mouse plasma; assay type: in vitro ADME
assay-readout: half-life at 5 µM (min)
Only the number, expressed in min, is required.

Sample CC(C)[N+](C)(CCOC(=O)C1c2ccccc2Oc2ccccc21)C(C)C [propantheline, reference compound] ; half-life at 5 µM observed: 21.8

====

Assay: Metabolic stability in rat liver microsomes
Format: in vitro ADME
Settings: read-out: Scale-up CLint
Description: Main solutions were prepared according to Table 9 below: (II) Two Separate Experiments were Performed • a) With cofactor (NADPH): 25 μL of 10 mM NADPH was added to the culture broth. […] 100 μL of supernatant was taken and mixed with 100 μL of ultrapure water, equally divided and analyzed with LC-MS/MS. All calculations were conducted using Microsoft Excel. The peak area was determined from the extracted ion chromatogram. […]
assay-readout: CLint scaled at 1 μM (mL/min/kg)
Only the number, expressed in mL/min/kg, is required.

Sample CC(C)NP(=O)(OCc1ccc([N+](=O)[O-])c(Oc2ccc(-c3ccc(F)cc3)c(F)c2)c1)OCC1OC(C2N=CC(N)=NC2=O)C(F)(F)C1O (stereo not shown) [Compound H11] ; CLint scaled at 1 μM observed: 168

====

assay: Metabolic stability in dog liver microsomes; type: in vitro ADME; settings: dog, read-out: In vitro half-life t1/2
assay-readout: half-life at 1 μM (min)
Only the number, expressed in min, is required.

Sample CC(C)NP(=O)(OCc1ccc([N+](=O)[O-])c(Oc2ccc(-c3ccc(F)cc3)c(F)c2)c1)OCC1OC(C2N=CC(N)=NC2=O)C(F)(F)C1O (stereo not shown) ; half-life at 1 μM observed: 36.3

====

tested on: H460 cancer cells; assay: Inhibition of H460 cancer cells in the presence or absence of AKR1C3 inhibitor AST-3021 (section 2.1); format: cell-based, human; settings: Homo sapiens, NCI-H460, 72 h, H460; 72 hours; read-out: IC50 (nmol/L) AST-3021 not added
assay-readout: pIC50
Scale note: pIC50 = -log10(concentration in M).

Sample Nc1ccn([C@@H]2O[C@H](CO)[C@@H](O)C2(F)F)c(=O)n1 ; pIC50 observed: 7.88

====

experiment: Metabolic stability in monkey liver microsomes; assay type: in vitro ADME; details: monkey, read-out: In vitro half-life t1/2
assay-readout: half-life at 1 μM (min)
Only the number, expressed in min, is required.

Sample CC(C)NP(=O)(OCc1ccc([N+](=O)[O-])c(Oc2ccc(-c3ccc(F)cc3)c(F)c2)c1)OCC1OC(C2N=CC(N)=NC2=O)C(F)(F)C1O (stereo not shown) ; half-life at 1 μM observed: 5.06
